B1: BCL2L13 (parent)
chain: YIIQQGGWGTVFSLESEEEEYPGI

Variants of: B1
protocol-details: protein stability index of a GFP-peptide fusion (GPS, HEK-293T) (PSI 1-6); higher = more stable;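 note: lentivirally expressed fusions sorted by FACS into six bins by GFP to DsRed ratio, PSI derived from sequencing read proportions per bin multiplied by bin number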
measurement-setup: c terminus: a fixed tail appended
readout-kind: protein stability index
Numbers only.

Before answering, review these 5 worked examples.
• F12S = 2.03
• I24V = 1.78
• Q5E = 1.33
• G7C = 1.72
• E15Q = 2.31

Your task in this section: give protein stability index for each listed record.
1. P22N
2. S13V
3. G6F
4. S16E
5. S16V

RESULT:
1.42
2.28
1.97
1.59
1.65
